Origin of the recorded values: BindingDB's records for doi:10.1016/j.bmcl.2012.04.093

Assign pIC50 to each entry below.
- targetSystem: Neutrophil elastase (Homo sapiens, UniProt P08246)
- Sequence (P08246 whole entry): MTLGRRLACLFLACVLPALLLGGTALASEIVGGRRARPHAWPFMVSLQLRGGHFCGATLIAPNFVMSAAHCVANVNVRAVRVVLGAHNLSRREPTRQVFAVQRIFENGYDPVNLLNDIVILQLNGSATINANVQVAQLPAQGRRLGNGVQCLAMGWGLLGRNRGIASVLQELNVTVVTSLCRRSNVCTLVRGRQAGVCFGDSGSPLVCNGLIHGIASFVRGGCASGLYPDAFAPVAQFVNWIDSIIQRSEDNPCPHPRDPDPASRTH
- methodDescription: Inhibition of human neutrophil elastase using chromogenic substrate (N-MeOSuc-Ala-Ala-Pro-Val-p-nitroanilide after 120 mins
pIC50: −log10 of the molar value.

Exam item: Looking for the measured pIC50 of COc1ccc(C(=O)n2c(O)c(C)oc2=O)cc1 , can you help?
Marked response: < 3.30

Exam item: Looking for the measured pIC50 of Cc1oc(=O)n(Cc2ccccc2)c1O , can you help?
Marked response: < 3.30
